Origin of values: patent US9586959B2

Biological target: human serotonin 3 receptor (human 5-HT3 receptor) (Homo sapiens (Human), UniProt P46098)
Sequence (P46098 24-478): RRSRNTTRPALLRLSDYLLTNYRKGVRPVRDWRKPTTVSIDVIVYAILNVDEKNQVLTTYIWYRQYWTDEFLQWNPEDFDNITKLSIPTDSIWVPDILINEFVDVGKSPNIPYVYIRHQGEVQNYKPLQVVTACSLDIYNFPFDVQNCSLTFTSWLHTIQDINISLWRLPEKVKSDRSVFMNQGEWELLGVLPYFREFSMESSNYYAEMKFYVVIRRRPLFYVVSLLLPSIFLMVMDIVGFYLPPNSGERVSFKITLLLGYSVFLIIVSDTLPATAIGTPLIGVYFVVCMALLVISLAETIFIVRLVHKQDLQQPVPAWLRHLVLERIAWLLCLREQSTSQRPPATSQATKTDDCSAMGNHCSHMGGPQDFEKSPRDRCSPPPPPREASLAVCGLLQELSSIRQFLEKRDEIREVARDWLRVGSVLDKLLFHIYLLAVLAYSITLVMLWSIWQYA
Assay: Binding affinity of human serotonin 3 receptor (performed at Cerep)
Conditions: read-out: % inhibition degree at 10 μM, human serotonin 3 receptor (h5-HT3R)
attribute measured: inhibition at 10 µM

- CNC1CN(c2nc3ncc(Cl)cc3n3nnnc23)C1 [Compound 93]: 18%
- CNC1CN(c2nc3ncc(C#N)cc3n3cnnc23)C1 [Compound 25]: 0%
- CNC1CN(c2nc3ncc(Br)cc3n3nnnc23)C1 [Compound 95]: 25%
- CNC1CN(c2nc3ncc(I)cc3n3cnnc23)C1 [Compound 48]: 28%

---

The entries below are paired with their reported solubility at 2 h.
Assay: Solubility in artificial gastrointestinal tract solution
Assay type: physicochemical
Conditions: artificial gastrointestinal tract solution, fassif, thermodynamic from solid; second solution pH 6.5, 2 mg/mL sample, 37° C. 2 hours
attribute measured: solubility at 2 h (µg/mL)

• Brc1cnc2nc(N3CCN4CCCC4C3)c3nncn3c2c1 (stereo not shown) [Compound 74] = 646
• CNC1CN(c2nc3ncc(Cl)cc3n3cnnc23)C1 [Compound 18] = 791
• CNC1CN(c2nc3ncc(Br)cc3c3ccnn23)C1 [Compound 110] = 708
• Ic1cnc2nc(N3CCN4CCCC4C3)c3nncn3c2c1 (stereo not shown) [Compound 75] = 723
• CNC1CN(c2nc3ncc(I)cc3n3cnnc23)C1 [Compound 48] = 677
• CNC1CN(c2nc3ncc(Cl)cc3n3ccnc23)C1 [Compound 88] = 1580
• Clc1cnc2nc(N3CCN4CCCC4C3)c3nncn3c2c1 (stereo not shown) [Compound 29] = 1990
• CNC1CN(c2nc3ncc(Cl)cc3n3nnnc23)C1 [Compound 93] = 1310
• CNC1CN(c2nc3ncc(C)cc3n3cnnc23)C1 [Compound 50] = 1870
• Clc1cnc2nc(N3CCNCC3)c3nncn3c2c1 [Compound 7] = 1150
• Cc1nc2c3cc(Cl)cnc3nc(N3CCN(C)CC3)n2n1 [Compound 31] = 1980
• CN1CCN(c2nc3ncc(Br)cc3n3cnnc23)CC1 [Compound 12] = 679
• CNC1CN(c2nc3ncc(Br)cc3n3cnnc23)C1 [Compound 24] = 939
• Brc1cnc2nc(N3CCNCC3)c3nncn3c2c1 [Compound 16] = 758
• CNC1CN(C2=Nc3ncc(Br)cc3N3CCN=C23)C1 [Compound 107] = 1570
• CNC1CN(c2nc3ncc(C#N)cc3n3cnnc23)C1 [Compound 25] = 1380
• C[C@H]1CN(c2nc3ncc(Cl)cc3n3cnnc23)CCN1C [Compound 20] = 1640
• CNC1CN(c2nc3ncc([N+](=O)[O-])cc3n3cnnc23)C1 [Compound 111] = 1070
• CNC1CN(c2nc3ncc(Br)cc3n3cnnc23)C1.Cl [Compound 68] = 1760

---

Assay: Rat pharmacokinetics (oral)
Format: in vivo
Settings: plasma, 10 mg/kg, SD rat, 2 mg/mL solution at 5 mL/kg, read-out: Rat pharmacokinetics t1/2 (converted)
attribute measured: half-life

• CN1CCN(c2nc3ncc(Cl)cc3n3cnnc23)CC1 = 1.88 h
• CNC1CN(c2nc3ncc(C#N)cc3n3cnnc23)C1 = 2.21 h
• Clc1cnc2nc(N3CCNCC3)c3nncn3c2c1 = 1.62 h
• CNC1CN(c2nc3ncc(Cl)cc3n3cnnc23)C1 = 1.04 h
• CNC1CN(c2nc3ncc(Br)cc3n3cnnc23)C1 = 1.3 h

---

Assay: Metabolic stability in mouse microsome
Conditions: mouse microsome 1 mg/mL, 5 μM compound, 1 mM NADPH
attribute measured: Metabolic stability (CLh. int), Mouse (µL/min/mg)

* CN1CCN(c2nc3ncc(C(F)(F)F)cc3n3cnnc23)CC1 [Compound 53] | 3380
* N#Cc1cnc2nc(N3CCNCC3)c3nncn3c2c1 [Compound 26] | 6740
* C[C@H]1CN(c2nc3ncc(Cl)cc3n3cnnc23)CCN1 [Compound 19] | 26160
* Clc1cc2c(nc1Cl)nc(N1CCNCC1)c1nncn12 [Compound 62] | 7980
* CNC1CN(c2nc3ncc(Br)cc3n3nnnc23)C1 [Compound 95] | 18100

---

Assay: Solubility in artificial gastrointestinal tract solution
Assay type: physicochemical
Conditions: artificial gastrointestinal tract solution, fassif, thermodynamic from solid; second solution pH 6.5, 2 mg/mL sample, 37° C. 2 hours
attribute measured: solubility at 2 h (µg/mL)

- CNC1CN(c2nc3ncc(Br)cc3n3cnnc23)C1.O=C(O)C(F)(F)F: 1560
- CNC1CN(c2nc3ncc(Br)cc3n3nnnc23)C1.Cl: 1920
- C[C@H]1CN(c2nc3ncc(Cl)cc3n3cnnc23)CCN1: 1700
- CNC1CN(c2nc3ncc(Br)cc3n3nnnc23)C1: 1130
- Cc1nc2c3cc(Cl)cnc3nc(N3CCNCC3)n2n1: 1150
- CNC1CN(c2nc3ccc(Cl)nc3n3cnnc23)C1: 960
- CN1CCN(c2nc3ncc(Cl)cc3n3ccnc23)CC1: 1100
- Cc1nc2c(N3CCN(C)CC3)nc3ncc(Cl)cc3n2n1: 1090
- CNC1CN(c2nc3ncc(Cl)cc3c3oc(C)nc23)C1: 1940
- CN1CCN(c2nc3ncc(Cl)cc3n3cnnc23)CC1: 1240

---

Biological target: human histamine 4 receptor (hH4R) (Homo sapiens (Human), UniProt Q9H3N8)
Sequence (Q9H3N8 whole entry): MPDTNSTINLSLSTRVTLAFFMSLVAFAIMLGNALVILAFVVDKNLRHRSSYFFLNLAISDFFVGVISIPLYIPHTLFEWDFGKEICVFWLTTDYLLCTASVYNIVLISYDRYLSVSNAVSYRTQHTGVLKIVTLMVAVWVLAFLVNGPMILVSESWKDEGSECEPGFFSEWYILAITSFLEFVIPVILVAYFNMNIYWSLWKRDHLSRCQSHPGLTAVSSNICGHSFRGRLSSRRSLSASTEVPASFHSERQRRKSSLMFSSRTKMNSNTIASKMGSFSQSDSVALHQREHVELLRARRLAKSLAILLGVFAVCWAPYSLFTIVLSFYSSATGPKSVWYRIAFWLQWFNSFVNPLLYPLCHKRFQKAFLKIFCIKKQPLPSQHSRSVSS
Experiment: Binding affinity of human histamine 4 receptor (hH4R), [3H] labeled histamine displacement
Conditions: hH4R-overexpressed cell membrane, [3H] histamine
# maps each entry to its IC50
attribute measured: IC50 (nM)

• Clc1cnc2nc(N3C[C@@H]4C[C@H]3CN4)c3nncn3c2c1 = 490
• CNC1CN(c2nc3ncc(Br)cc3n3nnnc23)C1 = 44
• Clc1cnc2nc(N3CCN4CCCC4C3)c3nncn3c2c1 (centres unmarked) = 49
• Cc1nc2c(N3CCN(C)CC3)nc3ncc(Cl)cc3n2n1 = 11
• Cc1nc2c3cc(Cl)cnc3nc(N3CCNCC3)n2n1 = 73
• C[C@H]1CN(c2nc3ncc(Cl)cc3n3cnnc23)CCN1C = 380
• C[C@H]1CN(c2nc3ncc(Cl)cc3n3cnnc23)CCN1 = 760
• CN1CCN(c2nc3nc(OCC(F)(F)F)c(Cl)cc3n3cnnc23)CC1 = 240
• CNC1CN(c2nc3ncc(Cl)cc3n3nnnc23)C1 = 65
• CNC1CN(c2nc3ncc(Cl)cc3n3cnnc23)C1 = 55
• Clc1cnc2nc(N3CCNCC3)c3nccn3c2c1 = 618
• CNC1CN(c2nc3ncc([N+](=O)[O-])cc3n3cnnc23)C1 = 240
• CNC1CN(C2=Nc3ncc(Br)cc3N3CCN=C23)C1 = 620
• CNC1CN(c2nc3cnc(Cl)cc3n3cnnc23)C1 = 210
• CNC1CN(c2nc3ncc(C(F)F)cc3n3cnnc23)C1 = 710
• CN1CCN(c2nc3nc(Cl)c(Cl)cc3n3cnnc23)CC1 = 177
• CCOc1nc2nc(N3CCN(C)CC3)c3nncn3c2cc1Cl = 140
• CNC1CN(c2nc3ncc(C)cc3n3cnnc23)C1 = 190
• CNC1CN(c2nc3ncc(C(F)(F)F)cc3n3cnnc23)C1 = 220
• Cc1cnc2nc(N3CCN(C)CC3)c3nncn3c2c1 = 506

---

Assay: Mouse pharmacokinetics (oral)
Assay type: in vivo
Conditions: plasma, 50 mg/kg, ICR mouse, 5 mg/mL solution at 10 mL/kg, read-out: Mouse pharmacokinetics t1/2 (converted)
attribute measured: half-life (h)

- CNC1CN(c2nc3ncc(Cl)cc3n3cnnc23)C1: 1.32
- CN1CCN(c2nc3ncc(Cl)cc3n3cnnc23)CC1: 2.21
- CNC1CN(c2nc3ncc(Cl)cc3n3nnnc23)C1: 15.6
- Cc1nc2c3cc(Cl)cnc3nc(N3CCNCC3)n2n1: 5.39
- CNC1CN(c2nc3ncc(I)cc3n3cnnc23)C1: 1.46
- Clc1cnc2nc(N3CCNCC3)c3nncn3c2c1: 1.28
- Cc1nc2c3cc(Cl)cnc3nc(N3CCN(C)CC3)n2n1: 1.79
- Brc1cnc2nc(N3CCNCC3)c3nncn3c2c1: 1.18
- CNC1CN(c2nc3ncc(C#N)cc3n3cnnc23)C1: 1.17
- CNC1CN(c2nc3ncc(Br)cc3n3nnnc23)C1: 4.03
- CNC1CN(c2nc3ncc(Br)cc3n3cnnc23)C1: 0.96

---

Experiment: Metabolic stability in mouse microsome
Conditions: mouse microsome 1 mg/mL, 5 μM compound, 1 mM NADPH
Recorded Metabolic stability (CLh. int), Mouse values for a group of compounds are listed next.
attribute measured: Metabolic stability (CLh. int), Mouse (µL/min/mg)

• CNC1CN(c2nc3ncc([N+](=O)[O-])cc3n3cnnc23)C1 = 5230
• CN1CCN(c2nc3ncc(Br)cc3n3cnnc23)CC1 = 14420
• Brc1cnc2nc(N3CCNCC3)c3nncn3c2c1 = 10420
• CNC1CN(c2nc3ncc(OC(F)F)cc3n3cnnc23)C1 = 1230
• C#Cc1cnc2nc(N3CC(NC)C3)c3nncn3c2c1 = 680
• CN1C[C@@H]2C[C@H]1CN2c1nc2ncc(Cl)cc2n2cnnc12 = 1460
• CNC1CN(c2nc3ncc(Br)c(C)c3n3cnnc23)C1 = 6490
• CN1CCN(c2nc3nc(C#N)c(Cl)cc3n3cnnc23)CC1 = 7130
• CNC1CN(c2nc3ncc(C)cc3n3cnnc23)C1 = 9080
• CN(O)C1CN(c2nc3ncc(Br)cc3n3cnnc23)C1 = 6780
• Clc1cnc2nc(N3CCNCC3)n3nc(C4CC4)nc3c2c1 = 5090
• CNC1CN(c2nc3ncc(OC)cc3n3cnnc23)C1 = 12740
• Cc1nc2c3cc(Cl)cnc3nc(N3CCN(C)CC3)n2n1 = 28630
• Cc1nc2c3cc(Cl)cnc3nc(N3CCNCC3)n2n1 = 8390
• CNC1CN(c2nc3ncc(Br)cc3n3ccnc23)C1 = 10710
• CNC1CN(c2nc3ncc(Br)cc3c3ccnn23)C1 = 1780
• CNC1CN(C2=Nc3ncc(Br)cc3N3CCN=C23)C1 = 8150
• CNC1CN(c2nc3ncc(I)cc3n3cnnc23)C1 = 5310
• Cn1cc2c(n1)c(N1CCNCC1)nc1ncc(Cl)cc12 = 12990
• CNC1CN(c2nc3ncc(Br)cc3n3cnnc23)C1 = 3050
• CNC1CN(c2nc3ncc(Cl)cc3n3cnnc23)C1 = 1760
